Readings of composite z-score for the listed compounds
- Tgt: Dihydroorotate dehydrogenase (quinone), mitochondrial (Plasmodium falciparum (isolate 3D7)) (UniProt Q08210)
- Sequence (Q08210 whole entry, looked up): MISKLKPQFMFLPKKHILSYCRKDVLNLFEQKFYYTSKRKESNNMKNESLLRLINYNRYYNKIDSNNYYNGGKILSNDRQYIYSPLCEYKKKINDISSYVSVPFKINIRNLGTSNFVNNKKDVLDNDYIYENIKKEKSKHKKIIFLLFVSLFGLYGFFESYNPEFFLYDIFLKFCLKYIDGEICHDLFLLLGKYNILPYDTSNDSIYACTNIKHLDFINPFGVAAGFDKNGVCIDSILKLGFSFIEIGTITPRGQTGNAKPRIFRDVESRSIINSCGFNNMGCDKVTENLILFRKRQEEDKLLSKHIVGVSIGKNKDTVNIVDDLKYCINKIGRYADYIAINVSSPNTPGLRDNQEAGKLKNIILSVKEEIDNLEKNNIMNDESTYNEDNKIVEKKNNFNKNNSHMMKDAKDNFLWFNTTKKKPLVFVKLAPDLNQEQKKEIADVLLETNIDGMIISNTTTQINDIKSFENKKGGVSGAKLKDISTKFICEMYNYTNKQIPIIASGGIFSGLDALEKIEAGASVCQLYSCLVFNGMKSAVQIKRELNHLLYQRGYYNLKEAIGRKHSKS
- Run description: PfDHODH enzyme inhibitors, primary screen, biochemical, C-terminal His tag, absorbance 600 nm (AID 1175);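 further: recombinant parasite enzyme with a five histidine tag at its C terminus; test concentration not given here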
- Condition notes: DCIP absorbance 600 nm, higher = more signal, called active from +8 up or from −8 down
The source made the active and inactive calls.

[
  {
    "Compound": "O=C1c2ccccc2[C@@]2(Cc3ccccc3N(CC(F)(F)F)C2=O)[C@H](c2ccc(CO)cc2)N1Cc1ccccc1Cl",
    "composite z-score": "-22.2 (active)"
  },
  {
    "Compound": "CCCCCC1=C2CNC(CCC)(C(=O)OC)C=C2C(C)C1=O (stereo not drawn)",
    "composite z-score": "-1.62 (inactive)"
  },
  {
    "Compound": "NCCCCCNC(=O)[C@@H]1C[C@@H]2C(=O)N[C@@H](Cc3ccccc3)C(=O)N2[C@@H]1c1cccc(OCCO)c1",
    "composite z-score": "0.251 (inactive)"
  }
]

Measured values drawn from PubChem BioAssay for this set.
